# target.or.test.system: Intercellular adhesion molecule (ICAM-1), Integrin alpha-L/beta-2 (Homo sapiens, UniProt P05107+P05362+P20701)
# Sequence (P20701 whole entry): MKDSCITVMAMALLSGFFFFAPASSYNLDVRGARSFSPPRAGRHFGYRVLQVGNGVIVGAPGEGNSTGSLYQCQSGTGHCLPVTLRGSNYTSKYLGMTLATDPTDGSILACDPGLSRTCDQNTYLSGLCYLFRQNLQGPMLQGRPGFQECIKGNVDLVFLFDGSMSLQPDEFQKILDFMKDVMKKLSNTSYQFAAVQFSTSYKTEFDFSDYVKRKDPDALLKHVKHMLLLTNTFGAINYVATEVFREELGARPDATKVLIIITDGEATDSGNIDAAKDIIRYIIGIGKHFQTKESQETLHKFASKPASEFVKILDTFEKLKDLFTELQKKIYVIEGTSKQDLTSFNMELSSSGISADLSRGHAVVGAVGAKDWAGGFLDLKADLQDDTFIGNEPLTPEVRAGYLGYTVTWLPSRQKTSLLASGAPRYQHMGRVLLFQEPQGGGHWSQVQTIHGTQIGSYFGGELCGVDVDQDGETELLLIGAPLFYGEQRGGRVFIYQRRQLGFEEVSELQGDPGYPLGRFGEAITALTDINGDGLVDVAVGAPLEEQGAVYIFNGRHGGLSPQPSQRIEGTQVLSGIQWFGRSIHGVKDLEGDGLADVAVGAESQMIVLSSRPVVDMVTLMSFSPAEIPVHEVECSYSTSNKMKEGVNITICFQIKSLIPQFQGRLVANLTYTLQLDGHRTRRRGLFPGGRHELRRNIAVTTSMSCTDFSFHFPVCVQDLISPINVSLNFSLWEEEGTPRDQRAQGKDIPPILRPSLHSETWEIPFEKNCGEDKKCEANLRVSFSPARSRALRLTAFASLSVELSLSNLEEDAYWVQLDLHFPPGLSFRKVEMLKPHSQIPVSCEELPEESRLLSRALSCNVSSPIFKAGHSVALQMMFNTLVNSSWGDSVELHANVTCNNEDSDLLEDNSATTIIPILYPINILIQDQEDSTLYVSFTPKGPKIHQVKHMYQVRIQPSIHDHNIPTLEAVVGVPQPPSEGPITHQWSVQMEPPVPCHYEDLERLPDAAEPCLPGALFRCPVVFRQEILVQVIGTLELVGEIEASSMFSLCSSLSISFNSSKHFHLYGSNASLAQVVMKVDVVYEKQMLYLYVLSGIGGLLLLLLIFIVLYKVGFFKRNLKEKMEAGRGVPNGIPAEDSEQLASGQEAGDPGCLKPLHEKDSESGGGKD
# Sequence (P05362 whole entry): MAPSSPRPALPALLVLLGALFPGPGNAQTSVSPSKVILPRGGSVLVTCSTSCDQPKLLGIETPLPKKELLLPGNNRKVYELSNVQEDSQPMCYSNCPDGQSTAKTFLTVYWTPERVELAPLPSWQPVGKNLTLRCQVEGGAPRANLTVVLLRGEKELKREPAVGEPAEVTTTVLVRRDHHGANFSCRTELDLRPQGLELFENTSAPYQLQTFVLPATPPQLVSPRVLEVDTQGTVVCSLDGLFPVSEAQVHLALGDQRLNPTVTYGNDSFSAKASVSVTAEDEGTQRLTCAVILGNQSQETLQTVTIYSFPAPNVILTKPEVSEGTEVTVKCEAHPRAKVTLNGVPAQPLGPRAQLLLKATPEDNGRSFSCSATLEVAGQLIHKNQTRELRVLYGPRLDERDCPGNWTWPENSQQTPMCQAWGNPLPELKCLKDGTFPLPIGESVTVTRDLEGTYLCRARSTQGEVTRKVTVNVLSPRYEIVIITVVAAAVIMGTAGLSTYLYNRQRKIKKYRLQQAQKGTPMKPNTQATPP
# Sequence (P05107 whole entry): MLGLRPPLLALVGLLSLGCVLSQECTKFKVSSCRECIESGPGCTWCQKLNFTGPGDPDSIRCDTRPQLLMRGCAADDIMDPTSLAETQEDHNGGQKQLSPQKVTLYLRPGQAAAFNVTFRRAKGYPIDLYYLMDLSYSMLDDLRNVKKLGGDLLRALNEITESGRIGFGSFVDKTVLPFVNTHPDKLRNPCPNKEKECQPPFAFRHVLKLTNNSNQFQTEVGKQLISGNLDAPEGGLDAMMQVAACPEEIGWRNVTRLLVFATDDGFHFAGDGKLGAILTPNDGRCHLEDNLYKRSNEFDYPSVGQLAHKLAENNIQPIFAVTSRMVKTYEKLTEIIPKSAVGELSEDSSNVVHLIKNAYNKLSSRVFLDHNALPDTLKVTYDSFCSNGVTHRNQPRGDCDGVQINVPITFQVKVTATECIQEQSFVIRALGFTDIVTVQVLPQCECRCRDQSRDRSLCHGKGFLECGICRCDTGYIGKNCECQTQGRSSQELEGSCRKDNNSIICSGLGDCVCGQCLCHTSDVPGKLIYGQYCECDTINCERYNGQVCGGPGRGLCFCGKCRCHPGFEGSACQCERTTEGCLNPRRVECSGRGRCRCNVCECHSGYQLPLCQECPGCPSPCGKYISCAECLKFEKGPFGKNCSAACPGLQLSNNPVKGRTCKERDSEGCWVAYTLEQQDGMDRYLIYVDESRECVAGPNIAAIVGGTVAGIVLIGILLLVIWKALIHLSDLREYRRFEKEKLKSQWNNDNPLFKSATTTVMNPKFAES
# experimental.protocol: Inhibition of LFA1/ICAM1 interaction in human Hut-78 cells by cell migration assay
Would you mind telling me the reported pIC50 of each entry?
Scale: pIC50 equals -log10([C]), with [C] in mol/L.

[Q] Fill in pIC50 for record Cc1cccc(C(=O)N2CCc3c(cc(Cl)c(C(=O)N[C@@H](CNC(=O)c4cccs4)C(=O)O)c3Cl)C2)c1
[A] 7.05

[Q] Fill in pIC50 for record O=C(NC[C@H](NC(=O)c1c(Cl)cc2c(c1Cl)CCN(C(=O)c1cccc(Cl)c1)C2)C(=O)O)c1cccs1
[A] 7.18

[Q] Fill in pIC50 for record O=C(NC[C@H](NC(=O)c1c(Cl)cc2c(c1Cl)CCN(C(=O)c1ccc3c(c1)OCC3)C2)C(=O)O)c1cccs1
[A] 7.89

[Q] Fill in pIC50 for record Cc1ccccc1C(=O)N1CCc2c(cc(Cl)c(C(=O)N[C@@H](CNC(=O)c3cccs3)C(=O)O)c2Cl)C1
[A] 6.34

[Q] Fill in pIC50 for record O=C(NC[C@H](NC(=O)c1c(Cl)cc2c(c1Cl)CCN(C(=O)c1ccccc1)C2)C(=O)O)c1cccs1
[A] 7.10

[Q] Fill in pIC50 for record O=C(NC[C@H](NC(=O)c1c(Cl)cc2c(c1Cl)CCN(C(=O)/C=C/c1ccco1)C2)C(=O)O)c1cccs1
[A] 7.60

====

# experimental.protocol: Oral bioavailability in C57BL/6 mouse at 20 mg/kg
# Format: ADME, organism-based
# experimental.conditions: in vivo
test.readout: bioavailability (%)
Provide the reading as a plain figure in %.

[Q] Fill in bioavailability for record CCOC(=O)[C@H](CNC(=O)c1cccs1)NC(=O)c1c(Cl)cc2c(c1Cl)CCN(C(=O)c1ccc3ccoc3c1)C2
[A] 27

====

# experimental.protocol: Tmax in C57BL/6 mouse at 100 mg/kg, po
# Format: ADME, organism-based
# Parameters: dose 100 mg/kg, route oral
# experimental.conditions: in vivo
test.readout: Tmax
A complete answer gives the number followed by the unit.

[Q] Fill in Tmax for record CCOC(=O)[C@H](CNC(=O)c1cccs1)NC(=O)c1c(Cl)cc2c(c1Cl)CCN(C(=O)c1ccc3ccoc3c1)C2
[A] 1 h

====

# experimental.protocol: Half life in Sprague-Dawley rat at 5 mg/kg, iv
# Assay type: ADME, organism-based
# Set-up: dose 5 mg/kg, route intravenous
# experimental.conditions: in vivo
test.readout: half-life
A complete answer gives the number followed by the unit.

[Q] Fill in half-life for record O=C(NC[C@H](NC(=O)c1c(Cl)cc2c(c1Cl)CCN(C(=O)c1ccc(Cl)cc1)C2)C(=O)O)c1cccs1
[A] 1.4 h

[Q] Fill in half-life for record O=C(NC[C@H](NC(=O)c1c(Cl)cc2c(c1Cl)CCN(C(=O)c1cc3ccccc3o1)C2)C(=O)O)c1cccs1
[A] 1.5 h

[Q] Fill in half-life for record O=C(NC[C@H](NC(=O)c1c(Cl)cc2c(c1Cl)CCN(C(=O)c1ccc(Cl)cc1)C2)C(=O)O)c1ccccc1
[A] 0.7 h

[Q] Fill in half-life for record O=C(NC[C@H](NC(=O)c1c(Cl)cc2c(c1Cl)CCN(C(=O)c1ccc3ccoc3c1)C2)C(=O)O)c1cccs1
[A] 3 h

[Q] Fill in half-life for record O=C(NC[C@H](NC(=O)c1c(Cl)cc2c(c1Cl)CCN(C(=O)c1cccc(Cl)c1)C2)C(=O)O)c1cccs1
[A] 1.1 h

[Q] Fill in half-life for record CCOC(=O)[C@H](CNC(=O)c1cccs1)NC(=O)c1c(Cl)cc2c(c1Cl)CCN(C(=O)c1ccc3ccoc3c1)C2
[A] 2.8 h

[Q] Fill in half-life for record O=C(NC[C@H](NC(=O)c1c(Cl)cc2c(c1Cl)CCN(C(=O)c1ccc3c(c1)OCC3)C2)C(=O)O)c1cccs1
[A] 1.1 h
